The reported measurements were obtained from PubChem BioAssay AID624344.

Examples of compounds with documented IC50 follow.
# assayComment: NFkB reporter suppression in cystic fibrosis bronchial cells – cell-based, uHTS hits, panel, cytotoxicity readout, dose response (AID 624344)
# measurementSetup: CF bronchial epithelial cells, PAF-induced NFkB reporter inhibition; with PAF, mean of runs
resultType: IC50

1) O=C(/C=C/c1cccc([N+](=O)[O-])c1)n1cnc2ccccc21 | 1.99 µM
2) CCN(CC)CCN(C(=O)CCS(=O)(=O)c1ccccc1)c1nc2c(C)cc(C)cc2s1 | 5.98 µM
3) Nc1nc(N)nc(-c2cc(O)ccc2O)n1 | 3.31 µM
4) Cc1ccc(NC(=O)c2cc(C(=O)c3cc(Cl)ccc3O)cn(-c3ccc(C)cc3)c2=O)cc1 | 9.4 µM
5) COC(=O)c1ccc(-c2ccc(OC)c([C@H]3[C@H]4C=CC[C@@H](C)[C@@H]4C(=O)N3Cc3ccccc3)c2)cc1 | 2.4 µM
6) O=C1NC(c2cccc3ccccc23)Nc2ccc(Cl)cc21 (stereo not given) | 8.66 µM
7) C=C(C)[C@@H]1CCC2(C(=O)O)CC[C@]3(C)[C@H](CC[C@@H]4[C@@]5(C)CCC(=O)C(C)(C)[C@@H]5CC[C@]43C)[C@@H]12 (stereo not given in full) | 8.27 µM
8) ON=C1c2ccccc2-c2cc(Br)ccc21 | 1.87 µM
9) CC(C)C[C@@H](CN1CCC[C@@H]1CN1C(=S)NC[C@@H]1Cc1ccc(O)cc1)N1C[C@H](Cc2ccc(O)cc2)N(CC2CCCCC2)C1=S | 17 µM
10) N#CC(C#N)c1ccnc2ccccc12 | 3.17 µM
